TEST_SETTINGS: in water, 319.15 K
EXPERIMENTAL_READOUT: solubility (mole fraction)
Form field (numeric): enter value without unit.

I have this compound here, `O=C(O)c1ccccc1C(=O)O` , and I need its recorded solubility (mole fraction).
0.00181

----------
Reported solubility (mole fraction) values are given for each entry in this list.
TEST_SETTINGS: in water, 325.15 K
Form field (numeric): enter value without unit.

O=C(O)c1ccco1 ... 0.0664

I have this compound here, `O=C(O)c1ccccc1O` , and I need its recorded solubility (mole fraction).
0.000847

----------
TEST_SETTINGS: in water, 317.15 K
Reported solubility (mole fraction) values are given for each entry in this list.
Form field (numeric): enter value without unit.

I have this compound here, `O=C(O)CCCC(=O)O` , and I need its recorded solubility (mole fraction).
0.287

Can you handle `O=C(O)c1ccco1` next?
0.0257

Can you handle `O=C(O)c1ccccc1C(=O)O` next?
0.00164

Can you handle `O=C(O)c1ccccc1O` next?
0.000572
